- System: Escherichia coli
- EXPERIMENT_NOTES: Antibacterial activity against Escherichia coli ATCC 25922 (CO-ADD:GN_001); MIC in CAMBH media using NBS plates, by Resazurin F(560/590)
- Type: functional
- CONDITION_INFO: Concentration 20 uM, ASSAY_TEST Inhibition of Bacterial Growth, detection method Resazurin, Fluorescence (ex560/em590), MEDIA CAMHB, plate type 384well, CORNING #3640, time 18 hr
MEASURED_METRIC: Inhibition (%)

INSERT INTO results (compound, target_of_assay, value_measured) VALUES
  ('CCOC(=O)N1CCN(Cc2c(O)ccc3ccccc23)CC1', 'Escherichia coli', 8.73),
  ('N=C(NOC(=O)c1ccccc1)C(Cc1ccccc1)C(=O)NOC(=O)c1ccccc1 (centres undefined)', 'Escherichia coli', 18.34),
  ('O=C(O)C(Cc1ccccc1N(CCO)CCO)N1C(=O)c2ccccc2C1=O (centres undefined)', 'Escherichia coli', 3.59),
  ('O=C(Nc1ccc(Br)c2ccccc12)c1ccc2ccccc2c1O', 'Escherichia coli', -4.98);
